The following molecules are listed with their measured pEC50 values.
Tested on: HSV-1
Test: microbe, parasite or virus in culture
Assay type: cell-based
Details: read-out: EC50
pEC50: −log10 of the molar value.
property-name: pEC50

INSERT INTO results (molecule, target_entity, value) VALUES
  ('CCCCCCCCCCCCCCCCCCOCCOP(=O)(O)COC(CO)Cn1ccc(N)nc1=O (centres unmarked)', 'HSV-1', 8.70),
  ('CCCCCCCCCCCCCCCCCCOCCOP1(=O)COC(Cn2ccc(N)nc2=O)CO1 (centres unmarked)', 'HSV-1', 8.10),
  ('CCCCCCCCCCCCCCCCOCCCOP1(=O)COC(Cn2ccc(N)nc2=O)CO1 (centres unmarked)', 'HSV-1', 7.52),
  ('CCCCCCCCCCCCCCCCCCOCCCOP1(=O)COC(Cn2ccc(N)nc2=O)CO1 (centres unmarked)', 'HSV-1', 6.48),
  ('CCCCCCCCCCCCCCCCCCOCCCOP(=O)(O)CO[C@H](CO)Cn1ccc(N)nc1=O', 'HSV-1', 8.52);
